assay: Cell Viability - LYMP2-026 (AID 989); conditions: LYMP2-026 lymphoblastoid cell viability, qHTS; series mostly up to 92.2 µM;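 also: cells exposed to compound for 24 h at 37 °C; nearly all actives have a fitted effect of over 50% in size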
Inconclusive results are not listed. Active and inactive are the calls of the source. Calls follow the shape of the dose curve; as a rule, active = well fitted cell-killing curve with a large enough effect; inconclusive = small, poorly fitted or top-dose-only effect; inactive = flat fitted curve, though single readings scatter.
The categories you may choose from are y for active, n for inactive

{"columns": ["compound", "qualitativeLabel"],
 "data": [
  ["C/C(Cl)=C/CCl", "n"],
  ["CCCCOC(=O)COc1ccc(Cl)cc1Cl", "n"],
  ["Cc1cc2nc(N)sc2cc1C", "n"],
  ["C=C(C#N)C(=O)OCC", "n"]
]}

Problem: Recorded test outcome, item c1cc2c3c(c1)ccc1cccc(c13)C2
Solution: n

Problem: Give the logged outcome of this assay for the following compound: CCCCCCN
Solution: n

Problem: What classification did Oc1ccc2c(c1)OCO2 end up with in this test?
Solution: n

Problem: Test call for this compound, please: OCC(CO)(CBr)CBr
Solution: n

Problem: Hi team, can someone confirm the assay call for Cc1cc(-c2ccc(N=Nc3cc(S(=O)(=O)O)c4ccccc4c3N)c(C)c2)ccc1N=Nc1cc(S(=O)(=O)O)c2ccccc2c1N ?
Solution: n

Problem: Recorded test call requested for O=[N+]([O-])c1ccccc1Nc1ccccc1
Solution: n

Problem: Which outcome was assigned to Brc1ccc(-c2ccccc2)cc1 in this test?
Solution: n
